- Test system: HCC1395
- assayDetails: cell proliferation (confluence) relative to DMSO control; higher = less growth inhibition
- assayContext: 5 uM; 6 d
Listed below: cell proliferation values for each entry.
outcomeMeasure: cell proliferation (%)

{"compound": "O=C(NC[C@H](O)CN1CCc2ccccc2C1)c1ccnc(NC2CCC2)c1", "outcomeMeasure": "cell proliferation", "unitTag": "%", "numericValue": 99.5}
{"compound": "CCN(C(=O)CO)[C@H]1CN(/C(=N\\C#N)Nc2cccc(OC(F)F)c2)N=C1c1ccc(Cl)c(Cl)c1", "outcomeMeasure": "cell proliferation", "unitTag": "%", "numericValue": 100}
{"compound": "CCCc1cc(C)[nH]c(=O)c1CNC(=O)c1cc(-c2ccc(N3CCN(C(C)C)CC3)nc2)cc2c1cnn2C(C)C", "outcomeMeasure": "cell proliferation", "unitTag": "%", "numericValue": 99.9}
{"compound": "CC(C)Oc1ccc(-c2c[nH]cc2CN(C)CCO)cc1", "outcomeMeasure": "cell proliferation", "unitTag": "%", "numericValue": 100}
{"compound": "CNCCN1CCC(OCc2ccccc2)CC1", "outcomeMeasure": "cell proliferation", "unitTag": "%", "numericValue": 100}
{"compound": "COc1cc(-c2cn(C)c(=O)c3cnccc23)c(OC)cc1CN(C)C", "outcomeMeasure": "cell proliferation", "unitTag": "%", "numericValue": 100}
{"compound": "COc1cc2c(cc1OCCCN1CCCC1)N=C(N)C21CCC1", "outcomeMeasure": "cell proliferation", "unitTag": "%", "numericValue": 100}
{"compound": "COc1cc2c(NC3CCN(C(C)C)CC3)nc(C3CCCCC3)nc2cc1OCCCN1CCCC1", "outcomeMeasure": "cell proliferation", "unitTag": "%", "numericValue": 99.3}
{"compound": "O=C(/C=C/N1C[C@H]2C[C@@H]1CN2c1ccccn1)c1ccccc1O", "outcomeMeasure": "cell proliferation", "unitTag": "%", "numericValue": 99.9}
{"compound": "Clc1cc2c(NC3CCCC3)nnc(-c3ccncc3)c2cc1Cl", "outcomeMeasure": "cell proliferation", "unitTag": "%", "numericValue": 100}
{"compound": "CN(C)[C@H]1CN(C2CCc3cccc(F)c32)C[C@@H]1c1ccc(N2CCN(S(C)(=O)=O)CC2)cc1 (stereo partly specified)", "outcomeMeasure": "cell proliferation", "unitTag": "%", "numericValue": 99.9}
{"compound": "O=C(c1ccc(C(=O)N2CCC(N3CCCC3)CC2)c(Nc2ccccc2)c1)N1CCC(N2CCCC2)CC1", "outcomeMeasure": "cell proliferation", "unitTag": "%", "numericValue": 99.9}
{"compound": "COc1ccccc1C(=O)Nc1cc2c(cc1N1CCCC1)n(C)c(=O)n2C", "outcomeMeasure": "cell proliferation", "unitTag": "%", "numericValue": 100}
{"compound": "O=C(NCC(=O)N1CCCC1)Nc1ccc2cnccc2c1", "outcomeMeasure": "cell proliferation", "unitTag": "%", "numericValue": 99.8}
{"compound": "O=C([C@@H](Cc1cccc(C(F)(F)F)c1)NS(=O)(=O)c1cc(F)c2c(c1)CCNC2)N1CCCC1", "outcomeMeasure": "cell proliferation", "unitTag": "%", "numericValue": 100}
{"compound": "CCOC(=O)CCNc1cc(N2CCc3ccccc3CC2)nc(-c2cccnc2)n1", "outcomeMeasure": "cell proliferation", "unitTag": "%", "numericValue": 99.9}
